Tested on: long-lived proteins
Test: Degradation of (3H) L-leucine labelled long-lived proteins in H4 cells
Format: cell-based
Stated conditions: 1 h, relative to blank control
Attribute: Percent relative degradation of long-lived proteins (%)
Express it in %; write the number only.

INSERT INTO measurements (molecule, value_measured) VALUES
  ('C=C(C)[C@H]1O[C@H]2CC[C@@]3(C)[C@@](O)(CC[C@H]4[C@@H]5OC(C)(C)[C@H]6C[C@@H]7C(=C)Cc8c(Cl)cc9[nH]c(c5c9c8[C@@]76O)[C@@]43C)[C@]23O[C@@H]3[C@H]1O', 92.88),
  ('O=c1[nH]c2ccccc2n1C1CCN(CCCC(c2ccc(F)cc2)c2ccc(F)cc2)CC1 [Pimozide]', 129.13);

### Prompt # lookup: Percent relative degradation of long-lived proteins (%) of CN1CCN(CCCN2c3ccccc3Sc3ccc(C(F)(F)F)cc32)CC1
### Response 76.62

### Prompt Would you mind doing COC(=O)C1=C(C)NC(C)=C(C(=O)OCCN(C)Cc2ccccc2)C1c1cccc([N+](=O)[O-])c1.Cl (stereo not drawn) as well?
### Response 84.62

### Prompt COC(=O)C1=C(C)NC(C)=C(C(=O)OCCCN2CCC(c3ccccc3)(c3ccccc3)CC2)C1c1cccc([N+](=O)[O-])c1.Cl (stereo not drawn) ?
### Response 71.65

### Prompt Please give the result for CCCCc1oc2ccccc2c1C(=O)c1cc(I)c(OCCN(CC)CC)c(I)c1.Cl too.
### Response 101.32
